Every entry's value here was drawn from ChEMBL document CHEMBL1154288.

target: GABA A receptor alpha-2/beta-2/gamma-2 (Rattus norvegicus) (UniProt P18508+P23576+P63138); assay: Inverse agonist activity at rat GABA alpha-2-beta-3-gamma-2 receptor expressed in HEK293 cells by electrophysiology assay relative to GABA; format: functional, cell-based
Quick list: Efficacy per entry.
The response must be a number in % with no trailing unit.

// worked examples, Efficacy included
- SMILES_STRING: "FC(F)c1ncn2c1Cn1ncnc1-c1cc(Br)ccc1-2"
  UNITS_TEXT: "%"
  OBSERVED_MEASUREMENT: -4
- SMILES_STRING: "Cc1ncn2c1Cn1ncnc1-c1cc(Cl)ccc1-2"
  UNITS_TEXT: "%"
  OBSERVED_MEASUREMENT: -2
- SMILES_STRING: "Clc1ccc2c(c1)-c1ncnn1Cc1c(Cl)ncn1-2"
  UNITS_TEXT: "%"
  OBSERVED_MEASUREMENT: -9
- SMILES_STRING: "FC(F)c1ncn2c1Cn1ncnc1-c1cc(Cl)ccc1-2"
  UNITS_TEXT: "%"
  OBSERVED_MEASUREMENT: 2

We now examine a further compound.
The value of Efficacy measured for the compound Clc1ncn2c1Cn1ncnc1-c1cc(Br)ccc1-2 turned out to be -25
